FYI, the data here is from the supplement of paper PMC11061612.

So I've got a bunch of compounds here, and I need their combination Emax values.
# Tested on: GR-ST (B-Lymphoblastic Leukemia)
# protocol_description: combination Emax (second highest fraction inhibited in the dose matrix, 72 h); higher = more inhibition; extreme values may be limits of the assay
Numbers only.

CN(CCO)CC[C@H](CSc1ccccc1)Nc1ccc(S(=O)(=O)NC(=O)c2ccc(N3CCC([C@@H](O)c4ccccc4-c4ccc(Cl)cc4)CC3)cc2)cc1S(=O)(=O)C(F)(F)F [AZD4320] + CS(=O)(=O)CCNCc1ccc(-c2ccc3ncnc(Nc4ccc(OCc5cccc(F)c5)c(Cl)c4)c3c2)o1 [Lapatinib] (first compound max 1 µM, 7x7, partner max 10 µM)	0.961
CN(CCO)CC[C@H](CSc1ccccc1)Nc1ccc(S(=O)(=O)NC(=O)c2ccc(N3CCC([C@@H](O)c4ccccc4-c4ccc(Cl)cc4)CC3)cc2)cc1S(=O)(=O)C(F)(F)F [AZD4320] + C[C@@H]1COCCN1C2=NC(=NC(=C2)C3(CC3)[S@](=N)(=O)C)C4=C5C=CNC5=NC=C4 [AZD6738] (first compound max 1 µM, 7x7, partner max 10 µM)	0.745

Moving on to another compound below.
What measured combination Emax is associated with C=CCn1c(=O)c2cnc(Nc3ccc(N4CCN(C)CC4)cc3)nc2n1-c1cccc(C(C)(C)O)n1 [AZD1775] + Nc1ccn([C@@H]2O[C@H](CO)[C@@H](O)C2(F)F)c(=O)n1 [Gemcitabine] (first compound max 1 µM, partner max 0.3 µM) on GR-ST (B-Lymphoblastic Leukemia)?
0.855

* * *

# Test system: K-562 (Chronic Myelogenous Leukemia);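 further: after 72 h of two-drug dosing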
# protocol_description: Bliss excess, mean over the matrix (fraction); higher = more synergy
So I've got a bunch of molecules here, and I need their Bliss excess values.
Numbers only.

Study these solved cases before continuing.
C[C@@H](Nc1cc(F)cc(F)c1)c1cc(C(=O)N(C)C)cc2c(=O)cc(N3CCOCC3)oc12 [AZD8186] + CC(=O)c1c(C)c2cnc(Nc3ccc(N4CCNCC4)cn3)nc2n(C2CCCC2)c1=O [Palbociclib] (first compound max 10 µM, 7x7, partner max 10 µM)	0.0479
CC(=O)c1c(C)c2cnc(Nc3ccc(N4CCNCC4)cn3)nc2n(C2CCCC2)c1=O [Palbociclib] + Cn1cnc2c(F)c(Nc3ccc(Br)cc3Cl)c(C(=O)NOCCO)cc21 [Selumetinib] (first compound max 10 µM, 7x7, partner max 10 µM)	0.0221

Moving on to another molecule below.
Which measured Bliss excess value corresponds to Cc1c2c(nn1C)CSCc1cc(n(C)n1)CSc1cc(c3ccccc3c1)OCCCc1c(C(=O)O)n(C)c3c-2c(Cl)ccc13 [AZD5991] + CC1(C)CCC(CN2CCN(c3ccc(C(=O)NS(=O)(=O)c4ccc(NCC5CCOCC5)c([N+](=O)[O-])c4)c(Oc4cnc5[nH]ccc5c4)c3)CC2)=C(c2ccc(Cl)cc2)C1 [Venetoclax] (first compound max 1 µM, 7x7, partner max 1 µM) ?
-0.003

* * *

# System: NCI-H2818 (Mesothelioma)
# protocol_description: combination Emax (second highest fraction inhibited in the dose matrix, 72 h); higher = more inhibition; extreme values may be limits of the assay
So I've got a bunch of molecules here, and I need their combination Emax values.
Answers are plain numbers.

Study these solved cases before continuing.
CC(=O)c1c(C)c2cnc(Nc3ccc(N4CCNCC4)cn3)nc2n(C2CCCC2)c1=O [Palbociclib] + Cn1cnc2c(F)c(Nc3ccc(Br)cc3Cl)c(C(=O)NOCCO)cc21 [Selumetinib] (first compound max 10 µM, 7x7, partner max 10 µM)	0.208
Cc1c2c(nn1C)CSCc1cc(n(C)n1)CSc1cc(c3ccccc3c1)OCCCc1c(C(=O)O)n(C)c3c-2c(Cl)ccc13 [AZD5991] + C=CCn1c(=O)c2cnc(Nc3ccc(N4CCN(C)CC4)cc3)nc2n1-c1cccc(C(C)(C)O)n1 [AZD1775] (first compound max 1 µM, partner max 1 µM)	0.519
O=C(c1cc(Cc2n[nH]c(=O)c3ccccc23)ccc1F)N1CCN(C(=O)C2CC2)CC1 [Olaparib] + CC1(C)CCC(CN2CCN(c3ccc(C(=O)NS(=O)(=O)c4ccc(NCC5CCOCC5)c([N+](=O)[O-])c4)c(Oc4cnc5[nH]ccc5c4)c3)CC2)=C(c2ccc(Cl)cc2)C1 [Venetoclax] (first compound max 10 µM, 7x7, partner max 1 µM)	0.158
CN(C)CCCOc1ccc(-c2ccc3ncc4c(c3c2)n(C2CCOCC2)c(=O)n4C)cn1 [AZD0156] + C[C@@H]1COCCN1C2=NC(=NC(=C2)C3(CC3)[S@](=N)(=O)C)C4=C5C=CNC5=NC=C4 [AZD6738] (first compound max 1 µM, 7x7, partner max 10 µM)	0.324

Which measured combination Emax value corresponds to C[C@@H]1COCCN1c1cc(C2([S@](C)(=N)=O)CC2)nc(-c2ccnc3[nH]ccc23)n1 [AZD6738] + O=C(c1cc(Cc2n[nH]c(=O)c3ccccc23)ccc1F)N1CCN(C(=O)C2CC2)CC1 [Olaparib] (first compound max 10 µM, 7x7, partner max 10 µM) ?
0.45

* * *

# Test system: SW1417 (Colorectal Carcinoma)
# protocol_description: combination Emax (second highest fraction inhibited in the dose matrix, 72 h); higher = more inhibition; extreme values may be limits of the assay
So I've got a bunch of compounds here, and I need their combination Emax values.
Give bare numbers.

Cn1cnc2c(F)c(Nc3ccc(Br)cc3Cl)c(C(=O)NOCCO)cc21 [Selumetinib] + C=CCn1c(=O)c2cnc(Nc3ccc(N4CCN(C)CC4)cc3)nc2n1-c1cccc(C(C)(C)O)n1 [AZD1775] (first compound max 10 µM, partner max 1 µM)	0.704
Cc1c2c(nn1C)CSCc1cc(n(C)n1)CSc1cc(c3ccccc3c1)OCCCc1c(C(=O)O)n(C)c3c-2c(Cl)ccc13 [AZD5991] + CC(=O)O[C@H]1C(=O)[C@@]2(C)[C@H]([C@H](OC(=O)c3ccccc3)[C@]3(O)C[C@H](OC(=O)[C@H](O)[C@@H](NC(=O)c4ccccc4)c4ccccc4)C(C)=C1C3(C)C)[C@]1(OC(C)=O)CO[C@@H]1C[C@@H]2O [Paclitaxel] (first compound max 1 µM, 7x7, partner max 3 µM)	0.529

Moving on to another compound below.
What measured combination Emax is associated with C[C@@H]1COCCN1c1cc(C2([S@](C)(=N)=O)CC2)nc(-c2ccnc3[nH]ccc23)n1 [AZD6738] + O=C(c1cc(Cc2n[nH]c(=O)c3ccccc23)ccc1F)N1CCN(C(=O)C2CC2)CC1 [Olaparib] (first compound max 10 µM, 7x7, partner max 10 µM) on SW1417 (Colorectal Carcinoma)?
0.38

* * *

# Test system: TC-71 (Ewing's Sarcoma)
# protocol_description: combination Emax (second highest fraction inhibited in the dose matrix, 72 h); higher = more inhibition; extreme values may be limits of the assay
Field: class. Source value: combination Emax. Ranges: lo = under 0.7, mid = from 0.7 up to 0.9, hi = 0.9 and over

The examples below pair each entry with its known result.
COc1nnc2ccc(N3CCC(c4ccc(OCCN5CCN(C)C(=O)[C@H]5C)cc4)CC3)nn12 [AZD5153] + CN(CC[C@H](CSC1=CC=CC=C1)NC2=C(C=C(C=C2)S(=O)(=O)NC(=O)C3=CC=C(C=C3)N4CCC(CC4)[C@H](C5=CC=CC=C5C6=CC=C(C=C6)Cl)O)S(=O)(=O)C(F)(F)F)CCO [AZD4320] (first compound max 1 µM, 7x7, partner max 1 µM)	mid
C[C@@H](c1ccc2nccn2c1)n1nnc2ncc(-c3cnn(C)c3)nc21 [Savolitinib] + CC1(C)CCC(CN2CCN(c3ccc(C(=O)NS(=O)(=O)c4ccc(NCC5CCOCC5)c([N+](=O)[O-])c4)c(Oc4cnc5[nH]ccc5c4)c3)CC2)=C(c2ccc(Cl)cc2)C1 [Venetoclax] (first compound max 1 µM, 7x7, partner max 1 µM)	lo
COc1nnc2ccc(N3CCC(c4ccc(OCCN5CCN(C)C(=O)[C@H]5C)cc4)CC3)nn12 [AZD5153] + Cn1cnc2c(F)c(Nc3ccc(Br)cc3Cl)c(C(=O)NOCCO)cc21 [Selumetinib] (first compound max 1 µM, 7x7, partner max 10 µM)	mid
CC1(C)CCC(CN2CCN(c3ccc(C(=O)NS(=O)(=O)c4ccc(NCC5CCOCC5)c([N+](=O)[O-])c4)c(Oc4cnc5[nH]ccc5c4)c3)CC2)=C(c2ccc(Cl)cc2)C1 [Venetoclax] + COc1cc(Nc2ncc3c(n2)-c2ccc(Cl)cc2C(c2c(F)cccc2OC)=NC3)ccc1C(=O)O [Alisertib] (first compound max 1 µM, 7x7, partner max 10 µM)	mid
COc1cccc(OCCCN)c1-c1cc(Nc2cnc(C#N)cn2)n[nH]1 [Prexasertib] + CCc1c2c(nc3ccc(O)cc13)-c1cc3c(c(=O)n1C2)COC(=O)[C@]3(O)CC [SN-38] (first compound max 1 µM, 7x7, partner max 0.3 µM)	hi
COc1cc2ncnc(Nc3ccc(F)c(Cl)c3)c2cc1OCCCN1CCOCC1 [Gefitinib] + CC(C)n1c(=O)n(C)c2cnc3cc(F)c(-c4ccc(OCCCN5CCCCC5)nc4)cc3c21 [AZD1390] (first compound max 10 µM, 7x7, partner max 0.3 µM)	lo
COc1cccc(OCCCN)c1-c1cc(Nc2cnc(C#N)cn2)n[nH]1 [Prexasertib] + C=CCn1c(=O)c2cnc(Nc3ccc(N4CCN(C)CC4)cc3)nc2n1-c1cccc(C(C)(C)O)n1 [AZD1775] (first compound max 1 µM, partner max 1 µM)	hi
CN(C)CCCOc1ccc(-c2ccc3ncc4c(c3c2)n(C2CCOCC2)c(=O)n4C)cn1 [AZD0156] + C=CCn1c(=O)c2cnc(Nc3ccc(N4CCN(C)CC4)cc3)nc2n1-c1cccc(C(C)(C)O)n1 [AZD1775] (first compound max 1 µM, partner max 1 µM)	lo

Hi, small favor: classify CC(=O)c1c(C)c2cnc(Nc3ccc(N4CCNCC4)cn3)nc2n(C2CCCC2)c1=O [Palbociclib] + CN(CC[C@H](CSC1=CC=CC=C1)NC2=C(C=C(C=C2)S(=O)(=O)NC(=O)C3=CC=C(C=C3)N4CCC(CC4)[C@H](C5=CC=CC=C5C6=CC=C(C=C6)Cl)O)S(=O)(=O)C(F)(F)F)CCO [AZD4320] (first compound max 10 µM, 7x7, partner max 1 µM) by its combination Emax when you get a moment.
mid

Queued: COc1cccc(OCCCN)c1-c1cc(Nc2cnc(C#N)cn2)n[nH]1 [Prexasertib] + C[C@@H]1COCCN1C2=NC(=NC(=C2)C3(CC3)[S@](=N)(=O)C)C4=C5C=CNC5=NC=C4 [AZD6738] (first compound max 1 µM, 7x7, partner max 10 µM)
hi

Queued: Cn1cnc2c(F)c(Nc3ccc(Br)cc3Cl)c(C(=O)NOCCO)cc21 [Selumetinib] + C=CCn1c(=O)c2cnc(Nc3ccc(N4CCN(C)CC4)cc3)nc2n1-c1cccc(C(C)(C)O)n1 [AZD1775] (first compound max 10 µM, partner max 1 µM)
lo
